Test system: COLO 205 colon
Experiment: NCI-60 one-dose screen, 48 h
Conditions: 10 µM unless noted
Protocol: Cells are grown in 96 well plates and exposed to the test compound for 48 hours. Compounds are tested at a single concentration, which is 10^-5 M for most compounds. The reported endpoint is percent growth (GI% or GIPRCNT), where numbers from 0 - 100% represent growth inhibition, and numbers from -100% - 0 represent cell death. For example, a value of 40 represents 60% growth inhibition. A value of 0 means no net growth occurred over the course of the experiment. […]
Compounds without any hit were thinned out: in the full panel of roughly 83,000, 20% have a hit. Calls of active or inactive are those of the source. Rule for the calls: active = growth percent below 10; inactive = the rest.
Outcome (select one): active, inactive

Q: Fill in: this test's call for "Cn1cc(-c2cc(N)n3nc(-c4c[nH]c5ccccc45)cc3n2)c2cc(F)ccc21" is ___
Result: active

Q: Fill in: this test's call for "COc1ccc2[nH]c(O)c(N=Nc3nc(-c4ccc(Br)cc4)cs3)c2c1" is ___
Result: active

Q: Fill in: this test's call for "CNc1nc2ccccc2n2c(-c3ccc(O)c(O)c3)cnc12" is ___
Result: active

Q: Fill in: this test's call for "COc1cc(/C=C/C(=O)c2ccc(S(=O)(=O)NCCNc3nc(N(C)C)nc(N4CCOCC4)n3)cc2)cc(OC)c1OC" is ___
Result: inactive

Q: Fill in: this test's call for "Cc1ccc(C(=O)Nc2cccc(C(=O)NC(=S)Nc3ccc(S(N)(=O)=O)cc3)c2)cc1" is ___
Result: inactive

----------
Tested on: SF-268 CNS
Test: NCI-60 one-dose screen, 48 h
Details: 10 µM unless noted
This is part of a sample that, as a whole, favours compounds with a hit. Of some 83,000 tested, about 20% had one in any assay. The source made the active and inactive calls. The calls were made as follows: active = growth percent below 10; inactive = the rest.
Outcome (select one): 1 = active, -1 = inactive

[[record]]
smiles_structure = "N#Cc1ccc(C(=O)NNC(=O)CSc2nc3sc4c(c3c(=O)n2-c2ccc(Cl)cc2)CCCC4)cc1"
target = "SF-268 CNS"
answer_label = -1

[[record]]
smiles_structure = "CCCCC[C@@H]1C/C=C(\\C)[C@@H](O)C(C)(C)C(=O)[C@@H](C)/C=C(\\C)[C@@H]2C[C@H](O)C[C@](O)(CC(=O)O1)O2"
target = "SF-268 CNS"
answer_label = -1

[[record]]
smiles_structure = "Nc1nc2cc(-c3ccc4ncnc(NCc5ccccc5)c4c3)ccc2o1"
target = "SF-268 CNS"
answer_label = -1


From here, focus on the item given below.
Q: Fill in: this test's call for "COc1sc(/C=N/NC(=O)c2[nH]c3ccc(Br)cc3c2-c2ccccc2)cc1Cl" is ___
Result: 1

----------
Test system: 786-0 renal
Assay: NCI-60 one-dose screen, 48 h
Settings: 10 µM unless noted
Compounds without any hit were thinned out: in the full panel of roughly 83,000, 20% have a hit. Activity calls are given as the source filed them. Rule for the calls: active = growth percent below 10; inactive = the rest.
Outcome (select one): active, inactive

Before answering, review these 5 worked examples.
[[record]]
compound = "Clc1ccc2c(NCCNC34CC5CC(CC(C5)C3)C4)ccnc2c1"
answer_label = "active"

[[record]]
compound = "NS(=O)(=O)c1ccc(Nc2nc(N/N=C/c3cc(Br)c(O)c(Br)c3)nc(Nc3ccccc3)n2)cc1"
answer_label = "inactive"

[[record]]
compound = "CC[C@@]12CC(C(=O)OC)=C3Nc4cc5c(cc4[C@@]34CCN(C[C@H]3O[C@H]31)[C@@H]24)[C@@H]1[C@H](O5)[C@@H](O)[C@@]2(CC)CC(C(=O)OC)=C3Nc4cc(O)ccc4[C@@]34CCN1[C@@H]24"
answer_label = "active"

[[record]]
compound = "Cc1ccc(C2CC(c3ccc(NC(=S)Nc4ccccc4)cc3)=NN2c2ccc(S(N)(=O)=O)cc2)cc1 (stereo not drawn)"
answer_label = "inactive"

[[record]]
compound = "COc1ccc(C2=Nc3c(N)nc(N)nc3NC(c3ccc(Oc4nc(Nc5ccc(F)cc5)nc(N(C)C)n4)c(OC)c3)C2)cc1 (stereo not drawn)"
answer_label = "inactive"


Q: Fill in: this test's call for COc1ccc(NC(=O)NN2C(=O)c3ccccc3N(C)C2c2ccc(OC)cc2)cc1 (stereo not drawn) is ___
Result: inactive

Q: Fill in: this test's call for "Nc1nnc(CS(=O)(=O)c2ccccc2)s1" is ___
Result: inactive

Q: Fill in: this test's call for COc1c2c(c(Br)c3c1C(CCc1ccccc1)N(C)CC3)OCO2 (stereo not drawn) is ___
Result: inactive

Origin of values: PubChem BioAssay (NCI)
